EC50 for assorted compounds
Test: Inhibition of BCL-XL (unknown origin) expressed in mcl-1 deficient MEF assessed as induction of cell killing incubated for 48 hrs in presence of 10% FBS by Cell titerGlo reagent based assay
attributeMeasured: EC50 (nM)

* O=C(Nc1nc2ccccc2s1)c1cccc2c1CN(c1nc(C(=O)O)c(CCCOc3ccc(-n4cccn4)cc3)s1)CC2 | 640
* CN(C)CCCNc1ncnc2c1cnn2-c1ccc(OCCCc2sc(N3CCc4cccc(C(=O)Nc5nc6ccccc6s5)c4C3)nc2C(=O)O)cc1 | 10
